Study target: Neuronal acetylcholine receptor; alpha4/beta2 (Homo sapiens, UniProt P17787+P43681)
Sequence (P17787 whole entry): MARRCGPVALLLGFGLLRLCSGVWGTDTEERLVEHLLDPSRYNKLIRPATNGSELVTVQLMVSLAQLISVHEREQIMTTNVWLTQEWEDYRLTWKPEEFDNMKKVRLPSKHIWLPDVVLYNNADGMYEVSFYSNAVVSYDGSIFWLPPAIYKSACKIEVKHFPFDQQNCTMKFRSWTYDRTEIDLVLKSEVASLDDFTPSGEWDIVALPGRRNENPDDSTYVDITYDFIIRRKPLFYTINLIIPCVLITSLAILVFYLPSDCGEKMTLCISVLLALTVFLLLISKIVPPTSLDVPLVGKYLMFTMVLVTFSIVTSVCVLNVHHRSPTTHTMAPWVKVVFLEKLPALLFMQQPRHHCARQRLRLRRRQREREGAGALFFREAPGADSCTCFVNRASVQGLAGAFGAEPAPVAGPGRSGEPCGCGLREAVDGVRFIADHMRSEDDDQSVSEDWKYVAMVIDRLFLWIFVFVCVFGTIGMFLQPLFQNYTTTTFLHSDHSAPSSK
Sequence (P43681 whole entry): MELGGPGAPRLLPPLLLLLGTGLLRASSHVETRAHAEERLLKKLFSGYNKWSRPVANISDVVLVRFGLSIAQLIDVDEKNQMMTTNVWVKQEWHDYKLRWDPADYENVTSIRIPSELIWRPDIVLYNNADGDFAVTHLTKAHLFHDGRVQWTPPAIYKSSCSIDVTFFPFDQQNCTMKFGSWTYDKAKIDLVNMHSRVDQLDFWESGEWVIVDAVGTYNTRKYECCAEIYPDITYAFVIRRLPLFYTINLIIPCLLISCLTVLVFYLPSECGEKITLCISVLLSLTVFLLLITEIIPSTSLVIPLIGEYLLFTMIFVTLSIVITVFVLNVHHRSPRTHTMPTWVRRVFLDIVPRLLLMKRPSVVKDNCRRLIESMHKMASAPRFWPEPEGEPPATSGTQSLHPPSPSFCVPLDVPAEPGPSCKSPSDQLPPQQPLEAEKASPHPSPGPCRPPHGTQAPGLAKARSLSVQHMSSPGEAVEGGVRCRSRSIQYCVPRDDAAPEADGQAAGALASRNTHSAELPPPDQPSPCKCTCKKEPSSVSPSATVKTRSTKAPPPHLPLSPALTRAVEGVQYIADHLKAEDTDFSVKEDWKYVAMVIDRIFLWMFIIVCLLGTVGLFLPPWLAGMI
Procedure summary: Agonist activity at human recombinant alpha4beta2 nAChR expressed in human IMR32 cells assessed as calcium dynamics by FLIPR assay
Answer each item with its documented EC50.
Give bare numbers, in µM.

Each molecule below has a recorded value; state its EC50.
1. c1cncc(N2CCC3(CCN3)C2)c1 (stereo not drawn)
2. Clc1ccc(N2CCC3(CCN3)C2)cn1 (stereo not drawn)

Reply:
25
2.5

For each entry beneath this line, provide reported EC50.
1. Clc1ccc(OC[C@H]2CCN2)cn1
2. c1cncc(N2CC3CNC3C2)c1 (stereo not drawn)

Reply:
1. 0.02
2. 1.6
